test: Hydrolysis of linkers with or without glucose present (half-life by LC-MS or UPLC); assay type: physicochemical; conditions: 5% MeCN in PBS buffer, 10.000 equiv Glc; pH 7.4, 37°C, 0.42 mM linker
Measure: Half-life of the linker (h)
Numbers only, in h.

Consider the following illustrative entries.
# Compound, Experimental value
data = [
    ("COC(=O)[C@@H]1OC(c2ccc(OC)cc2)O[C@H]1C(=O)OC", 2.2),
    ("COc1ccccc1C1N[C@H](C(=O)OCc2ccccc2)CS1 (stereo partly shown)", 45),
    ("COC(=O)[C@@H]1OC(c2ccccc2OC)O[C@H]1C(=O)OC", 2.5),
]

Let us examine a further case.
Entry COc1ccc(C2N[C@H](C(=O)OCc3ccccc3)CS2)cc1 (stereo partly shown) : reported Half-life of the linker = ?
46
